Target: FOSL1;FOSL1 (Homo sapiens;Homo sapiens, UniProt P15407;P15407 96-169;96-169, |)
Sequence 1: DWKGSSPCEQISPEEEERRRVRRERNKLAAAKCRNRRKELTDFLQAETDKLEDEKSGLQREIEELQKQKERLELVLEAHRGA
Sequence 2: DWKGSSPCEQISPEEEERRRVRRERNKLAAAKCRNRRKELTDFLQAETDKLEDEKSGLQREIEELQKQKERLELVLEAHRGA
Experiment: SELEX-seq (CSI, HT-SELEX, round 3); SELEX-seq: 1x PBS (10 mM phosphate, 137 mM NaCl, 2.7 mM KCl) pH 7.6, 2.5 mM DTT, 50 ng/ul poly dI-dC, 0.1% BSA, 50 nM biotinylated bZIP (1:3 with partner for heterodimers), 100 nM library, room temperature, 1 h, 3 rounds; high values mean tight binding
Conditions: protein: recombinant;recombinant; copies: 1;1; dsDNA, one strand shown
Measured quantity: binding signal

So what's the measured binding signal for this one? `ATGACGTAAT`
0.0331 relative CSI intensity (max = 1)

So what's the measured binding signal for this one? `ATGATGCAAT`
0.00963 relative CSI intensity (max = 1)

So what's the measured binding signal for this one? `ATGACGTCAT`
1 relative CSI intensity (max = 1)

So what's the measured binding signal for this one? `CCTGACGTCA`
0.0039 relative CSI intensity (max = 1)

So what's the measured binding signal for this one? `ATGACGCAAT`
0.0097 relative CSI intensity (max = 1)

The reported numbers originate from paper PMC5349851.
